Attribution: ChEMBL document CHEMBL1201862

# AC50 measurements, system: Cytochrome P450 2C9 (Homo sapiens, UniProt P11712)
# Sequence (P11712 whole entry): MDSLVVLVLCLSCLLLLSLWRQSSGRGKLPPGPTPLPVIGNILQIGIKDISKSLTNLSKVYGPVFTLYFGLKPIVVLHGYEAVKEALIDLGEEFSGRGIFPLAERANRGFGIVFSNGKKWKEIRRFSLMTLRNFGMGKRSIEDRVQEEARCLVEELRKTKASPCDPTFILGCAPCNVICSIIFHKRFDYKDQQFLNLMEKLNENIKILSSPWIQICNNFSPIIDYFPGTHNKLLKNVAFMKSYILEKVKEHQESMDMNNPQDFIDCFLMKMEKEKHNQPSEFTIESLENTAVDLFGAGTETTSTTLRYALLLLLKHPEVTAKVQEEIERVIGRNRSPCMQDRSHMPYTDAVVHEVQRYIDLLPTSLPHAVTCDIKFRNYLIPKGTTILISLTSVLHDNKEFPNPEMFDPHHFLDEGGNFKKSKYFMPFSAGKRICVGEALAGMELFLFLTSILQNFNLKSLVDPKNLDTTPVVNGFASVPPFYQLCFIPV

Measured AC50 for this entry `CCOC(=O)c1nnn(-c2nonc2N)c1-c1ccccc1` on Cytochrome P450 2C9 (Homo sapiens, UniProt P11712): 10 µM (inconclusive)

Readout AC50 for `O=C(Nc1cccc(Cl)c1Cl)c1snnc1-c1ccccc1` , test system Cytochrome P450 2C9 (Homo sapiens, UniProt P11712), was 3.16 µM (inconclusive)

Bench note, Cytochrome P450 2C9 (Homo sapiens, UniProt P11712): `CCOC(=O)CSc1cc(C(F)(F)F)nc(-c2ccccn2)n1` , AC50 reads 39.8 µM (inconclusive)

Short answer on Cytochrome P450 2C9 (Homo sapiens, UniProt P11712) for `COc1cccc(/N=C/c2c[nH]nc2O)c1` , AC50: 20 µM (inconclusive)

// compound `COCCn1c(=O)c(CCc2ccccc2)nc2cnc(OC)nc21` , assay Cytochrome P450 2C9 (Homo sapiens, UniProt P11712), AC50 value: 20 µM (inconclusive)

With Cytochrome P450 2C9 (Homo sapiens, UniProt P11712) as the test system, Cc1ccc(C(=O)N2C3C=CC(C3)C2(C(F)(F)F)C(F)(F)F)cc1 (configuration not stated) showed AC50 of 39.8 µM (inconclusive)

Entry `Cc1cccc(CN(C)CCc2ccccn2)c1` ; assay system Cytochrome P450 2C9 (Homo sapiens, UniProt P11712); AC50 recorded at 0.355 µM (inconclusive)

Here `CCNc1ncc2nc(-c3cn(C)c4ccccc34)c(=O)n(C)c2n1` was tested on Cytochrome P450 2C9 (Homo sapiens, UniProt P11712), and its AC50 came to 39.8 µM (inconclusive)

// AC50 (Cytochrome P450 2C9 (Homo sapiens, UniProt P11712)) for N#Cc1ccc(C(c2nnnn2C2CCCC2)N2CCC(Cc3ccccc3)CC2)cc1 (configuration not stated) = 11.2 µM (inconclusive)

Field AC50 (Cytochrome P450 2C9 (Homo sapiens, UniProt P11712)), entry CCOc1cc(NC(=O)c2cccc(C)c2)c(OCC)cc1N=C(S)NCC1CCCO1 (configuration not stated) : 7.94 µM (inconclusive)

Observed AC50 on Cytochrome P450 2C9 (Homo sapiens, UniProt P11712), entry `Cn1ncc2c(Nc3cccc(Cl)c3)nc(Nc3cccc(Cl)c3)nc21` , equals 7.94 µM (inconclusive)

AC50 of `C=CCOc1cccc(CNn2cnnc2S)c1` , assay on Cytochrome P450 2C9 (Homo sapiens, UniProt P11712), is 6.31 µM (inconclusive)
